Value source: paper PMC3939009

Molecular target: UniProt P00734
Assay: Amidolytic activity of thrombin (hydrolysis of chromogenic substrate D-Phe-Pip-Arg-pNA)
Assay type: biochemical
Design: Thrombin, also known as an active plasma coagulation factor II; purchased Sigma-Aldrich Chemical Co. (St. Louis, MO, USA) T7009; host or cells: purified from human plasma
reported.metric: IC50

| molecule | study.system | reported.metric | result |
| --- | --- | --- | --- |
| O=c1c(-c2ccc(O)cc2)coc2cc(O)cc(O)c12 [Genistein, genistein] | UniProt P00734 | IC50 | > 1000 µM |
| O=C(O)c1cc(O)c(O)c(O)c1 [Gallic acid, gallic acid] | UniProt P00734 | IC50 | > 1000 µM |
